Tested on: hLiMTs
Test: Combined HCI (HCS) and cellular ATP 3D assay in hLiMTs
Details: hLiMTs; all endpoints; Cmax max used
PROPERTY: hLiMTs Cmax max All

Please review the entries below; each comes with its answer.
COMPOUND | hLiMTs Cmax max All
CC(=O)Oc1ccccc1C(=O)O | +ve
CC(C)(C)NCC(O)COc1cccc2c1CC(O)C(O)C2 (centres unmarked) | -ve
Cc1c(C)c2c(c(C)c1O)CCC(C)(COc1ccc(CC3SC(=O)NC3=O)cc1)O2 (centres unmarked) [troglitazone, reference compound] | +ve
CN(C)C(=N)N=C(N)N | +ve
[H]/N=C(/N)N[C@H]1[C@H](O)[C@@H](O)[C@H](O[C@@H]2O[C@@H](C)[C@](O)(C=O)[C@H]2O[C@@H]2O[C@@H](CO)[C@H](O)[C@@H](O)[C@@H]2NC)[C@@H](N/C(N)=N\[H])[C@@H]1O [streptomycin, reference compound] | -ve

Dear reader, for each entry below, please note its hLiMTs Cmax max All.
1. CN1CCN(C2=Nc3cc(Cl)ccc3Nc3ccccc32)CC1
2. CC[C@H]1OC(=O)[C@H](C)[C@@H](O[C@H]2C[C@@](C)(OC)[C@@H](O)[C@H](C)O2)[C@H](C)[C@@H](O[C@@H]2O[C@H](C)C[C@H](N(C)C)[C@H]2O)[C@](C)(O)C[C@@H](C)C(=O)[C@H](C)[C@@H](O)[C@]1(C)O
3. CC/C(=C(\c1ccccc1)c1ccc(OCCN(C)C)cc1)c1ccccc1
4. CCOC(=O)c1ncn2c1CN(C)C(=O)c1cc(F)ccc1-2 [flumazenil, reference compound]

-- reply
1. +ve
2. -ve
3. +ve
4. -ve

Dear reader, for each entry below, please note its hLiMTs Cmax max All.
1. C1CCC(C(CC2CCCCN2)C2CCCCC2)CC1 (centres unmarked)
2. CS(=O)(=O)CCNCc1ccc(-c2ccc3ncnc(Nc4ccc(OCc5cccc(F)c5)c(Cl)c4)c3c2)o1
3. CCc1nn(CCCN2CCN(c3cccc(Cl)c3)CC2)c(=O)n1CCOc1ccccc1 [nefazodone, reference compound]
4. CCCC(CCC)C(=O)O

-- reply
1. +ve
2. +ve
3. +ve
4. +ve

* * *

System: hLiMTs
Assay: Combined HCI (HCS) and cellular ATP 3D assay in hLiMTs
Conditions: hLiMTs; all endpoints; cut-off <100x Avg Cmaxu
PROPERTY: hLiMTs <100x Avg Cmaxu All

Please review the entries below; each comes with its answer.
COMPOUND | TARGET_SYSTEM | VALUE_OBSERVED
COc1ccccc1Oc1c(NS(=O)(=O)c2ccc(C(C)(C)C)cc2)nc(-c2ncccn2)nc1OCCO | hLiMTs | -ve
CCN(CC)C(=O)/C(C#N)=C/c1cc(O)c(O)c([N+](=O)[O-])c1 | hLiMTs | -ve
O=c1[nH]c(=O)n([C@@H]2O[C@H](CO)[C@@H](O)[C@@H]2F)cc1I | hLiMTs | +ve (<100x Avg Cmaxu)
N[C@@H]1[C@H]2CN(c3nc4c(cc3F)c(=O)c(C(=O)O)cn4-c3ccc(F)cc3F)C[C@@H]12 | hLiMTs | +ve (<100x Avg Cmaxu)
Clc1ccccc1CN1CCc2sccc2C1 | hLiMTs | +ve (<100x Avg Cmaxu)

Dear reader, for each entry below, please note its hLiMTs <100x Avg Cmaxu All.
1. O=C1CN(/N=C/c2ccc([N+](=O)[O-])o2)C(=O)N1 [nitrofurantoin, reference compound]
2. Cc1c(-c2ccccc2)oc2c(C(=O)OCCN3CCCCC3)cccc2c1=O [flavoxate]

-- reply
["+ve (<100x Avg Cmaxu)", "-ve"]

FYI, the data here is from paper PMC7395068.
